Below, each of the compounds is paired with its reported GI50 value.
# System: CAKI-1 renal
# assay.summary: NCI tumour cell line growth inhibition, 48 h

compound: COc1cc(N2CCC(N3CCN(C)CC3)CC2)ccc1Nc1ncnc(Nc2ccccc2S(=O)(=O)C(C)C)n1
GI50: 3.32 µM

compound: Cc1cc(O)cc2c1[C@]1(C)CCC3C(C)(C)CCC[C@]3(C)[C@H]1C2 (some centres undefined)
GI50: 18.1 µM

compound: C=C1C(=O)O[C@H]2[C@H]1CC/C(COC(=O)C(=O)c1cn(C)c3ccc(Cl)cc13)=C\CC[C@@]1(C)O[C@@H]21
GI50: 1.71 µM

compound: CCCN(CCC)c1ccc(/C=C/c2ccc3cc(OCC)ccc3n2)cc1
GI50: 73.3 µM

compound: COc1ccc(-c2cc(-c3ccc(Cl)cc3)nc(SCCCC(=O)NO)n2)cc1
GI50: 0.284 µM

compound: CC(=O)[CH-]C(=O)c1ccccc1.CC(=O)[CH-]C(=O)c1ccccc1.CC(C)CCCC(C)[C@H]1CCC2[C@@H]3CC=C4C[C@@H]([O-])CC[C@]4(C)C3CC[C@@]21C.CC(C)CCCC(C)[C@H]1CCC2[C@@H]3CC=C4C[C@@H]([O-])CC[C@]4(C)C3CC[C@@]21C.[Ti+4] (some centres undefined)
GI50: > 100 µM

compound: CC(=Nc1ccccc1)C1=C(O)C(Cc2ccc(O)cc2)NC1=O (centres undefined)
GI50: 0.0635 µM

compound: N#Cc1ccc2c(c1)C(=O)c1c-2n(CCCCl)c(=O)c2cc([N+](=O)[O-])ccc12
GI50: 18 µM

compound: CS(=O)(=O)CCNCc1ccc(-c2ccc3ncnc(Nc4ccc(OCc5ccccc5)c(Br)c4)c3c2)o1
GI50: 2.43 µM
